- Run description: self-splicing fitness, log relative to wild type (ln ratio); higher = more splicing; Tetrahymena group I intron in knt gene, E. coli kanamycin selection, DiMSum; sequences stand for … in CUCUCU…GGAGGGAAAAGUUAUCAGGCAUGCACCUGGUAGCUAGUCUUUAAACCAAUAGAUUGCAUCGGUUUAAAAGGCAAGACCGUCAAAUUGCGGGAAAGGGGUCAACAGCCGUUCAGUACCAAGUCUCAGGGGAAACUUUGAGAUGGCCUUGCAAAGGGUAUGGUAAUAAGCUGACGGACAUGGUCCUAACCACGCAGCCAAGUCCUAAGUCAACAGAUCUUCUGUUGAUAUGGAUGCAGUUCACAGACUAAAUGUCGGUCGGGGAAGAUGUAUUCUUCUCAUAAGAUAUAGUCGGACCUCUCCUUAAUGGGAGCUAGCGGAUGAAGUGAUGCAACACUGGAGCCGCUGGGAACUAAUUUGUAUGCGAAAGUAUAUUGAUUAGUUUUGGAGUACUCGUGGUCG;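 also: selection with 25 µg/mL kanamycin versus none on LB agar overnight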
- Experimental context: 30 °C
Readout name: self-splicing fitness (ln)

# Monomer sequence, Readout name, Observed
rows = [
    ("GAUUAGCAAUAUUACGCCCC", "self-splicing fitness (ln)", -1.52),
    ("CCGCAGCAAUAUUACGCGAC", "self-splicing fitness (ln)", -2.84),
    ("CACAAGCAAUAUUACGUACG", "self-splicing fitness (ln)", -0.467),
    ("GGCAAGCAAUAUUACGUCGC", "self-splicing fitness (ln)", -2.66),
]

---

- Run description: self-splicing fitness, log relative to wild type (ln ratio); higher = more splicing; Tetrahymena group I intron in knt gene, E. coli kanamycin selection, DiMSum; sequences stand for … in CUCUCU…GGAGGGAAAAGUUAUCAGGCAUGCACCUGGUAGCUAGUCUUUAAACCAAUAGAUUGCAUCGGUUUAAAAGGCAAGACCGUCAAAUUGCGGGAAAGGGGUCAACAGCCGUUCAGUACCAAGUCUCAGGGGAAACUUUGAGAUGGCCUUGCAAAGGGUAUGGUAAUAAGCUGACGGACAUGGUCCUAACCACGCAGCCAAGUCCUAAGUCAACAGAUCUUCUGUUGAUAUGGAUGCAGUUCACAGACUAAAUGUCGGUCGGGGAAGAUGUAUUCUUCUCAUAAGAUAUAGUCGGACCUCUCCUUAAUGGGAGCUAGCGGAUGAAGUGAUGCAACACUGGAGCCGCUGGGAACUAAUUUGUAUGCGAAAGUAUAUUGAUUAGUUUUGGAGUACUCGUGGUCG
- Experimental context: 37 °C
Class (required): determined from self-splicing fitness (ln); valid ranges are band A = under -2, band B = from -2 up to -0.8, band C = -0.8 and over

# Monomer sequence, Assigned class
rows = [
    ("GGAAAGCAAUAUUACGCAUA", "band B"),
    ("UGAAAGCAAUAUUACGACGG", "band C"),
    ("CACGAGCAAUAUUACGUCUU", "band A"),
    ("AUUCAGCAAUAUUACGAAGG", "band C"),
    ("AGCCAGCAAUAUUACGGCGA", "band C"),
    ("CGCUAGCAAUAUUACGUGUA", "band B"),
    ("GUGUAGCAAUAUUACGAGGU", "band B"),
    ("CCAUAGCAAUAUUACGGGUC", "band A"),
    ("UUGCAGCAAUAUUACGAGAA", "band B"),
    ("AUAGAGCAAUAUUACGCUAU", "band A"),
    ("ACCGAGCAAUAUUACGCAAA", "band A"),
    ("GACGAGCAAUAUUACGUCUG", "band A"),
    ("AGGCAGCAAUAUUACGACAU", "band C"),
    ("UUAUAGCAAUAUUACGCUUC", "band A"),
    ("CAUCAGCAAUAUUACGAACA", "band B"),
    ("CUCUAGCAAUAUUACGGGGG", "band A"),
    ("AAAUAGCAAUAUUACGAACA", "band C"),
    ("CCAAAGCAAUAUUACGCUGG", "band A"),
    ("GAAGAGCAAUAUUACGAAUU", "band A"),
    ("CGCGAGCAAUAUUACGGGUC", "band A"),
    ("CCCUAGCAAUAUUACGCUGA", "band A"),
    ("GCCUAGCAAUAUUACGGACG", "band C"),
    ("ACAAAGCAAUAUUACGAAUU", "band A"),
    ("GUCCAGCAAUAUUACGGUAG", "band B"),
    ("UACGAGCAAUAUUACGCUGG", "band B"),
    ("GUACAGCAAUAUUACGACUC", "band C"),
    ("UACCAGCAAUAUUACGAAAG", "band B"),
    ("GUGAAGCAAUAUUACGGGCA", "band C"),
    ("CACCAGCAAUAUUACGUUGG", "band A"),
    ("GACCAGCAAUAUUACGCGCC", "band C"),
    ("GUAGAGCAAUAUUACGACUC", "band C"),
    ("CGUAAGCAAUAUUACGUCUU", "band B"),
    ("CGAAAGCAAUAUUACGCCGG", "band C"),
    ("GCCGAGCAAUAUUACGAGGA", "band C"),
    ("UACUAGCAAUAUUACGAGUA", "band B"),
    ("ACGAAGCAAUAUUACGGCCA", "band C"),
    ("GUUUAGCAAUAUUACGAUCG", "band C"),
    ("CUAAAGCAAUAUUACGCAGC", "band A"),
    ("UCUAAGCAAUAUUACGUUUU", "band A"),
    ("CCGUAGCAAUAUUACGUGGA", "band A"),
    ("GGAAAGCAAUAUUACGCGUU", "band A"),
    ("GUUUAGCAAUAUUACGCCUA", "band B"),
]

---

- Run description: self-splicing fitness, log relative to wild type (ln ratio); higher = more splicing; Tetrahymena group I intron in knt gene, E. coli kanamycin selection, DiMSum; sequences stand for … in CUCUCU…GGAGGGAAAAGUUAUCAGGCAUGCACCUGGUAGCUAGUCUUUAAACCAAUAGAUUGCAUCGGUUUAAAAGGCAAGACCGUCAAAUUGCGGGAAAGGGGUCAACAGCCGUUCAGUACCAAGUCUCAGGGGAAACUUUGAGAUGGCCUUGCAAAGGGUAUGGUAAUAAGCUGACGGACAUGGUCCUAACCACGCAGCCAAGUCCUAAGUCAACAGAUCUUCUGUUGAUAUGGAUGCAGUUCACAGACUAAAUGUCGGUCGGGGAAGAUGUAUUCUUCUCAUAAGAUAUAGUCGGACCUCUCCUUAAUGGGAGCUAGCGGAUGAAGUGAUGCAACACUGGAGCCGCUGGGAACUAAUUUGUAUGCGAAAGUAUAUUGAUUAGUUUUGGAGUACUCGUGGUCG
- Experimental context: 37 °C
Class (required): determined from self-splicing fitness (ln); valid ranges are low-valued: < -2; mid-valued: ≥ -2 and < -0.9; high-valued: ≥ -0.9

# Monomer sequence, Assigned class
data = [
    ("CCGAAGCAAUAUUACGCGUA", "low-valued"),
    ("CGUAAGCAAUAUUACGGGAC", "low-valued"),
    ("GGGCAGCAAUAUUACGAAGC", "mid-valued"),
    ("CACAAGCAAUAUUACGACCC", "high-valued"),
    ("CUAGAGCAAUAUUACGCGAU", "high-valued"),
    ("CGUUAGCAAUAUUACGUUGU", "low-valued"),
    ("GCGUAGCAAUAUUACGAAGG", "low-valued"),
    ("CUAUAGCAAUAUUACGAACG", "high-valued"),
    ("UCAUAGCAAUAUUACGUCCA", "high-valued"),
    ("CGCCAGCAAUAUUACGAGCC", "high-valued"),
    ("GCGUAGCAAUAUUACGACUG", "high-valued"),
    ("CUACAGCAAUAUUACGGCAU", "low-valued"),
    ("CGACAGCAAUAUUACGAUGU", "low-valued"),
    ("AACAAGCAAUAUUACGGGCA", "high-valued"),
    ("GGUUAGCAAUAUUACGUCAC", "mid-valued"),
    ("GCUAAGCAAUAUUACGUGUA", "high-valued"),
    ("GCAGAGCAAUAUUACGUGAA", "mid-valued"),
    ("GGAGAGCAAUAUUACGAUCU", "low-valued"),
    ("CUGCAGCAAUAUUACGUCAG", "low-valued"),
    ("CUCGAGCAAUAUUACGUGGC", "mid-valued"),
    ("GAUUAGCAAUAUUACGCUUU", "mid-valued"),
    ("CGAAAGCAAUAUUACGGGUG", "high-valued"),
    ("CUAAAGCAAUAUUACGGAAC", "mid-valued"),
    ("CAACAGCAAUAUUACGACAG", "high-valued"),
    ("CUGCAGCAAUAUUACGUUCU", "mid-valued"),
    ("GUUAAGCAAUAUUACGCAGU", "low-valued"),
    ("UGAAAGCAAUAUUACGGAUA", "mid-valued"),
    ("CCUGAGCAAUAUUACGUUCC", "low-valued"),
    ("UAAUAGCAAUAUUACGGUCA", "high-valued"),
    ("CUAGAGCAAUAUUACGGCAG", "high-valued"),
    ("UCUGAGCAAUAUUACGAUUG", "low-valued"),
    ("GAGGAGCAAUAUUACGUAGC", "mid-valued"),
    ("CAUAAGCAAUAUUACGUCUC", "low-valued"),
    ("ACGCAGCAAUAUUACGAAUU", "mid-valued"),
    ("AAUGAGCAAUAUUACGGUGA", "low-valued"),
    ("CUGUAGCAAUAUUACGCGAG", "low-valued"),
    ("ACUCAGCAAUAUUACGAGGU", "mid-valued"),
    ("UCAAAGCAAUAUUACGACUG", "high-valued"),
    ("GAGUAGCAAUAUUACGUUAC", "mid-valued"),
    ("UUCAAGCAAUAUUACGUGCC", "high-valued"),
    ("CAGCAGCAAUAUUACGCUAG", "low-valued"),
    ("UCGAAGCAAUAUUACGUCCU", "high-valued"),
    ("GCCAAGCAAUAUUACGCACC", "high-valued"),
    ("GCCCAGCAAUAUUACGGGUU", "low-valued"),
    ("GCGUAGCAAUAUUACGGGUU", "mid-valued"),
    ("CCGGAGCAAUAUUACGGCAU", "mid-valued"),
    ("CUCAAGCAAUAUUACGGGUG", "mid-valued"),
    ("CGUGAGCAAUAUUACGUACG", "high-valued"),
    ("ACCCAGCAAUAUUACGUCAA", "mid-valued"),
    ("GCAGAGCAAUAUUACGUUGU", "low-valued"),
    ("GGUCAGCAAUAUUACGGGGC", "mid-valued"),
    ("UGCCAGCAAUAUUACGCGCA", "mid-valued"),
    ("UGUGAGCAAUAUUACGCCUG", "mid-valued"),
    ("GUGUAGCAAUAUUACGCCUU", "low-valued"),
]

Data credit: the supplement of paper PMC7877785
